Values were extracted from ChEMBL document CHEMBL4513216.

Test system: Plasmodium berghei
Test Protocol: Screen against P. berghei liver stage (PbLuc), transformed with Luciferase, at 2uM
Format: functional, HepG2
Condition Parameters: tested at 2 uM
Screen size: about 68,000 compounds; about 2,700 (4%) showed an effect of 50% or more. Only a selection was taken, and strong results are over-represented in it overall.
We label by threshold. Values of INHIBITION strictly beneath -10% are t. Values of -10% and up are f.

IN: Decide: INHIBITION of Cc1cc(C(=O)NC(CC(C)C)C(=O)Nc2cc[nH]n2)c(C)o1 (centres undefined) strictly below -10%?
OUT: t

IN: // same read-out, input: Cc1cc(OCC(=O)N2CCCC(c3ccn[nH]3)C2)no1 (centres undefined)
OUT: f

IN: // same read-out, input: Fc1cnc(N2CCO[C@H]3[C@H](OCC4CCOCC4)CC[C@@H]32)nc1
OUT: t

IN: // same read-out, input: Cc1ccc(C(=O)N2CCOCC3(CCN(C4CCOCC4)C3)C2)o1 (centres undefined)
OUT: f

IN: // same read-out, input: O=C1NC2(CCN(Cc3cccnc3)CC2)CC1c1cccnc1 (centres undefined)
OUT: t

IN: // same read-out, input: COc1ccc(C)cc1CN1CCC(c2cc3ncccc3cn2)CC1
OUT: t

IN: // same read-out, input: COc1cccc(-n2nnc(C(=O)N3CCCC(C)C3)c2C)c1 (centres undefined)
OUT: f

IN: // same read-out, input: CCCc1cc(CN(C)C2CCSCC2)n[nH]1
OUT: f

IN: // same read-out, input: Cc1nc(CN2CCC(C(=O)O)(n3ccc(-c4ccco4)n3)CC2)co1
OUT: t

IN: // same read-out, input: Cc1nc(CN2CCC(C(=O)O)(n3ccc(C(C)C)n3)CC2)co1
OUT: f

IN: // same read-out, input: c1coc(CN2CCCC3(COCCN(Cc4c[nH]nn4)C3)C2)c1 (centres undefined)
OUT: t

IN: // same read-out, input: Cc1cc(CN2C[C@@H]3COC[C@]3(COCc3csc(C)n3)C2)no1
OUT: f

IN: // same read-out, input: CN(CC(=O)NCc1ccccn1)C1CCCN(c2cccnn2)C1 (centres undefined)
OUT: t

IN: // same read-out, input: Cc1cc(C)cc(OCC(=O)N2CCC2)c1
OUT: f
